settings: 323.15 K; 40100 kPa; Liquid; Frequency=1.5 MHz; Single path-length method
measured attribute: speed of sound (m/s)

>>> df
   input_smiles  measured_attribute  unit_abbrev     val
0      CCCCCCCC      speed of sound          m/s  1325.3
1            CO      speed of sound          m/s  1242.7
2       CCCCCCC      speed of sound          m/s  1295.3
3     Cc1ccccc1      speed of sound          m/s  1396.3
4        CCCCCC      speed of sound          m/s  1256.9
5           CCO      speed of sound          m/s  1287.5
6             O      speed of sound          m/s  1612.2
7          CCCO      speed of sound          m/s  1340.2

Cited source: the NIST ThermoML archive (doi:10.1016/j.jct.2016.09.022)
